Molecular target: human prostaglandin E2 (subtype EP2) receptor (Homo sapiens)
Sequence (P43116 whole entry): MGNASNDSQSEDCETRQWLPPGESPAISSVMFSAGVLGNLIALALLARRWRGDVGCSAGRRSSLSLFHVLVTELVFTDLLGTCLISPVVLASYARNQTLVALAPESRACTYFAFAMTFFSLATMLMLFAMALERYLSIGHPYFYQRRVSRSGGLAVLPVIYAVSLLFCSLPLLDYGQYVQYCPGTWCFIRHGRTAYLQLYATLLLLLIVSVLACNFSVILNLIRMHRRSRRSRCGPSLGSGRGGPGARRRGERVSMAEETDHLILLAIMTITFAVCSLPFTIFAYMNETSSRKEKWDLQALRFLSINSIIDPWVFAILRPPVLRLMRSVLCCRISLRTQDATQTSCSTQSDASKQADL
Assay: cAMP antagonism assay
Conditions: in the presence of PGE2
endpoint name: IC50 (µM)

>  <sample smiles>
Cc1[nH]c2c(F)ccc(C)c2c1CCNC(=O)COc1ccc(Cl)cc1

>  <unit abbreviation>
µM

>  <measured number>
1.3

$$$$

P: Cc1[nH]c2c(F)ccc(C)c2c1CCNC(=O)COc1ccccc1
Q: COc1ccc(OCC(=O)NCCc2c(C)[nH]c3c(F)ccc(C)c23)cc1
(Q) Could you check which of P and Q has a smaller value for IC50? Answer by quoting the chosen item's label.
(A) Q
